Biological target: T1, cynomolgus monkey IL-4Rα (cynomolgus monkey, UniProt P24394 26-231 (human entry), limits assumed)
T1 construct: also called Cyno IL-4Rα; cyIL-4Rα
T1 chain: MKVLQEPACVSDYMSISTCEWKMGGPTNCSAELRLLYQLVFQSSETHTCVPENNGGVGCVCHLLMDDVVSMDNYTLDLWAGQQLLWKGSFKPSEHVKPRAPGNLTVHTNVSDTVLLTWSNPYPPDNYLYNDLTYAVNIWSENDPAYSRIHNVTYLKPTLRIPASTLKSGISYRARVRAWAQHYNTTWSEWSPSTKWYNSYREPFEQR
Test: SPR, Carterra LSA;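 further: antibodies captured on an anti-human Fc sensor chip, antigen injected at several concentrations, association and dissociation rates fitted with a 1:1 Langmuir model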
Field: label. Allowed values: 1 (Kd < 200 nM) or -1 (Kd >= 200 nM).

Consider the following illustrative entries.
[
  {
    "Binder": "Construct 26 (mAb434) (antibody, IgG4, V domains shown, VH/VL only) VH: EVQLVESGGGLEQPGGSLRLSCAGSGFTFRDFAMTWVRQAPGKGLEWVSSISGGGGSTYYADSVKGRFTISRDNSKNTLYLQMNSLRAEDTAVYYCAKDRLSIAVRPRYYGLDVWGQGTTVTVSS VL: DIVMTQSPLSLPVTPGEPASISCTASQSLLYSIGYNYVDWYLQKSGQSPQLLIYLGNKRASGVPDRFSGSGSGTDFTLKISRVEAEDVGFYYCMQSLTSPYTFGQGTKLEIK",
    "Assigned class": 1
  },
  {
    "Binder": "Construct 27 (mAb435) (antibody, IgG4, V domains shown, VH/VL only) VH: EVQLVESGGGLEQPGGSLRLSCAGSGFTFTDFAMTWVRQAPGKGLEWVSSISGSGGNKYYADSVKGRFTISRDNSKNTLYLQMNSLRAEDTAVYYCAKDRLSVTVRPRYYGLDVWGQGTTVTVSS VL: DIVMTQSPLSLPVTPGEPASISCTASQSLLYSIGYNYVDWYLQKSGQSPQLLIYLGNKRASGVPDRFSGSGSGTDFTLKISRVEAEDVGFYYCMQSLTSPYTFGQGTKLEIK",
    "Assigned class": 1
  },
  {
    "Binder": "Construct 3 (mAb412) (antibody, IgG4, V domains shown, VH/VL only) VH: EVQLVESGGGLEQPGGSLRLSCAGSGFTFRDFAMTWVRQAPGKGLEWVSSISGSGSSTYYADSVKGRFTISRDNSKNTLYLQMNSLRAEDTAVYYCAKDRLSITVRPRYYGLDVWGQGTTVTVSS VL: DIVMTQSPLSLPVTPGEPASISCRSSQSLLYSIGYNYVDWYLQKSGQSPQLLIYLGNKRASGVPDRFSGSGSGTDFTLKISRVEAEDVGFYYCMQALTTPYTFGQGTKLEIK",
    "Assigned class": 1
  },
  {
    "Binder": "Construct 17 (mAb425) (antibody, IgG4, V domains shown, VH/VL only) VH: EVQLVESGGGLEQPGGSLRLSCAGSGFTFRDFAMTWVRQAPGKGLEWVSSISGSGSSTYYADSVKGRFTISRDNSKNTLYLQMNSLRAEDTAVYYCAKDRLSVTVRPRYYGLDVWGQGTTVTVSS VL: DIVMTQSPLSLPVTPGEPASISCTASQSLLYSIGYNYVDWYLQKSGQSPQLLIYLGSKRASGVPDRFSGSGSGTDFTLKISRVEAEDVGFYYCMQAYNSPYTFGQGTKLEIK",
    "Assigned class": 1
  }
]

Now examine the next entry.
### Prompt Please indicate whether the reported Kd of Construct 36 (mAb469) (antibody, IgG4, V domains shown, VH/VL only) VH: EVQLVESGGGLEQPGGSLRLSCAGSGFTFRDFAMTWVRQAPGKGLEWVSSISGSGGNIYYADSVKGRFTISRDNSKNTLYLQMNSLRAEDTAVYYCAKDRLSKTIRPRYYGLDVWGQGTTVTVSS VL: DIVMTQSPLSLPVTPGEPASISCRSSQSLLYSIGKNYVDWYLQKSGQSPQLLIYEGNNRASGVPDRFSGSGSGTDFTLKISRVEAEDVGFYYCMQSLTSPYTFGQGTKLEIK is strictly below 200 nM.
### Response -1

FYI, the data here is from patent US20260193366A1.
